Assay: NCI Yeast Anticancer Drug Screen. Data for the sgs1 mgt1 strain (AID 161);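 note: 0% = growth of cultures given vehicle only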
Conditions: S. cerevisiae sgs1 mgt1 strain, active compounds read high; at 50.0 µM unless noted
Procedure: Growth inhibition of yeast strains with defined genetic alterations is measured as a screen for potential anti-cancer activity. Selected strains with alterations in DNA damage repair or cell cycle control were exposed to compounds and growth inhibition was measured relative to vehicle treated controls. The strain used in this assay is sgs1 mgt1
This is part of a sample that, as a whole, favours compounds with a hit. Of some 79,000 tested, about 15% had one in any assay.
Measured growth inhibition, listed per entry for reference.
experimental-endpoint: growth inhibition (%)

>>> endpoint_value("CCCSc1nc(C(=O)O)cc(=O)[nH]1")
-4.8
>>> endpoint_value("CCC(C)C/C(C)=N/Nc1ccc([N+](=O)[O-])cc1[N+](=O)[O-] (stereo not drawn)")
0.65
>>> endpoint_value("COc1ccc(OC)c2[nH]c(=O)c(C)nc12")
5.75
>>> endpoint_value("CCCOC(=O)c1cccnc1")
-14.7
>>> endpoint_value("CC(C)C(=O)NS(=O)(=O)c1ccccc1")
0.5
>>> endpoint_value("CCCCCCCCCOCC(=O)O")
7.5
>>> endpoint_value("CCOC(=O)Cc1nc(/C(C#N)=C/c2ccco2)[nH]c(=O)c1C#N")
30.9
>>> endpoint_value("C/C(CCC(CC(=O)O)C(C)C)=N\\NC(N)=O (stereo not drawn)")
-6.65
>>> endpoint_value("C=CCSc1cccc(C)c1")
-12.6
>>> endpoint_value("OC1(Cc2ccccc2)CCCCCC1")
2.15
>>> endpoint_value("Nc1ncnc2c1ncn2CC(O)CN(CCO)CCO (stereo not drawn)")
-3.7
>>> endpoint_value("O=[N+]([O-])c1ccc(/C=N/Nc2nnc3c4ccccc4c4ncccc4c3n2)o1")
-23.6
>>> endpoint_value("C=CCCCCCCCCCCCCCCCC")
-23.1

----------
assay: NCI Yeast Anticancer Drug Screen. Data for the bub3 strain (AID 167); conditions: S. cerevisiae bub3 mutant strain, active compounds read high; at 50.0 µM unless noted
About 79,000 compounds went through this panel and 15% of them were active in at least one assay; those are over-represented in the sample as a whole.
experimental-endpoint: growth inhibition (%)

>>> endpoint_value("Clc1cccc(Nc2ncnc3nc[nH]c23)c1")
-12.9
>>> endpoint_value("C1=CC(=CN2CCc3ccccc3C2)C=C1")
-9.2
>>> endpoint_value("Cc1ccc(CC2CC(=O)NC2=O)cc1 (configuration not stated)")
10.5
>>> endpoint_value("COc1cc2c(cc1OCc1ccccc1)C(Cc1cc(Br)sc1Br)=NCC2")
70.5
>>> endpoint_value("Cc1ccc(/C=C(/c2ccccc2)C(CC(=O)O)C(=O)O)cc1 (configuration not stated)")
-6.35
>>> endpoint_value("CSC(=N)N")
1.45
>>> endpoint_value("c1ccc(C2=NN(c3ccccc3)CC2)cc1")
9.35

----------
experiment: NCI Yeast Anticancer Drug Screen. Data for the rad50 strain (AID 155);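 note: 0% = growth of vehicle-only cultures of the same strain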; conditions: S. cerevisiae rad50 strain growth inhibition, active compounds read high; at 50.0 µM unless noted
About 79,000 compounds went through this panel and 15% of them were active in at least one assay; those are over-represented in the sample as a whole.
Measured growth inhibition, listed per entry for reference.
experimental-endpoint: growth inhibition (%)

>>> endpoint_value("O=C1C=C(C2=CC(=O)c3cccc(O)c3C2=O)C(=O)c2c(O)cccc21")
-32.5
>>> endpoint_value("BrC1(Br)C2CCCCCCC21 (stereo not given)")
-26.6
>>> endpoint_value("Cn1c2ccc(Cl)cc2c2ccc3c(c21)C(=O)C=CC3=O")
-21.9
>>> endpoint_value("COc1ccc2nc3cc(Cl)ccc3c(SCC(=O)Nc3ccccc3-c3ccccc3NC(=O)CSc3c4ccc(Cl)cc4nc4ccc(OC)cc34)c2c1")
-0.1
>>> endpoint_value("CCOC(=O)c1cccc(N)c1C(=O)OCCN(CC)CC")
1.65

----------
Measured growth inhibition, listed per entry for reference.
experiment: NCI Yeast Anticancer Drug Screen. Data for the sgs1 mgt1 strain (AID 161);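 note: 0% = growth of cultures given vehicle only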; conditions: S. cerevisiae sgs1 mgt1 strain, active compounds read high; at 50.0 µM unless noted
Compounds without any hit were thinned out: in the full panel of roughly 79,000, 15% have a hit.
experimental-endpoint: growth inhibition (%)

>>> endpoint_value("O=S(=O)(O)CCCOC1COc2ccccc2OCCOCCOc2ccccc2OC1")
-15.5
>>> endpoint_value("CC1(C)COC(c2ccc3c(c2)OCO3)N1 (stereo unspecified)")
-5.7
>>> endpoint_value("CC(=O)N(C(C)=O)c1c(N)n(C)c(=O)[nH]c1=O")
6.6
>>> endpoint_value("O=C(Oc1ccccc1)C(=O)Oc1ccccc1")
-8.75
>>> endpoint_value("NN=C(c1ccc([N+](=O)[O-])cc1)c1ccc([N+](=O)[O-])cc1")
-25.6
>>> endpoint_value("CC1=NCC23CC(=O)C4C(CCC5(C)CC(O)CCC45C)C2CCC13 (stereo unspecified)")
7.6
>>> endpoint_value("CCC1CC(C)=CCN1S(=O)(=O)c1ccc(C)cc1 (stereo unspecified)")
4.4
>>> endpoint_value("COc1c2c(cc3c1C(CCCc1ccccc1)N(C)CC3)OCO2 (stereo unspecified)")
30.7
>>> endpoint_value("CCCn1/c(=N\\N=O)sc2ccccc21")
-5.5
>>> endpoint_value("O=C(CSc1n[nH]c(=S)c2nc[nH]c12)c1ccc(Br)cc1")
21.6
>>> endpoint_value("N#Cc1c(C(F)(F)F)cc(-c2cccs2)nc1SC(C(=O)Nc1cc(C(F)(F)F)cc(C(F)(F)F)c1)c1ccccc1 (stereo unspecified)")
9.5

----------
experiment: NCI Yeast Anticancer Drug Screen. Data for the sgs1 mgt1 strain (AID 161);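 note: 0% = growth of cultures given vehicle only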; settings: S. cerevisiae sgs1 mgt1 strain; at 50.0 µM unless noted
This is part of a sample that, as a whole, favours compounds with a hit. Of some 79,000 tested, about 15% had one in any assay. Calls of active or inactive are those of the source. Cut-off read from the data, not from the text of the source: active = growth inhibition above about 70%; inactive = the rest. Where a SMILES comes first, the peptide text is derived from it. Bridges are numbered along the chain shown (N, C = ends). [ ]: non-standard residue; d: D form. Aib = CC(C)(N)C(=O)O; βAla = NCCC(=O)O
Outcomes: 1 (yes) (active), 0 (no) (inactive)

>>> class_label("CCN1CCCC(C(=O)O)(c2ccccc2)CC1 (configuration not stated)")
"0 (no)"
>>> class_label("COC(=O)c1ccccc1NC(=O)Cc1ccccc1")
"0 (no)"
>>> class_label("CCC(O)c1ccc(OCc2ccccc2)c(OC)c1 (configuration not stated)")
"0 (no)"
>>> class_label("CCCCOC(c1ccccc1)c1ccccc1")
"0 (no)"
>>> class_label("c1ccc2cnncc2c1")
"0 (no)"
>>> class_label("CCCCOC(=O)COc1c(Cl)ccc(Cl)c1Cl")
"0 (no)"
>>> class_label("CC1CCCCN1Cc1ccccc1COC(=O)c1ccc([N+](=O)[O-])cc1Cl (configuration not stated)")
"0 (no)"
>>> class_label("NC(=S)/N=C/C=C\\c1ccccc1")
"0 (no)"
>>> class_label("CC1(C)NC(=O)C(NC(=O)C(N)CC(=O)O)CCCCNC(=O)CCNC1=O (configuration not stated) (H-DK[Aib][βAla]; lactam 2-C; configuration not given here)")
"0 (no)"
>>> class_label("CC(C)=Nn1cnc2c1NC(C)(C)N=C2C(N)=O")
"0 (no)"
>>> class_label("COC(=O)CCSCc1ccccc1")
"0 (no)"
>>> class_label("C=C1C(=O)C23[C@H](O)C1CC[C@H]2[C@]12COC3(O)[C@@H](O)[C@@H]1C(C)(C)CC[C@@H]2O")
"0 (no)"
>>> class_label("CCCCCCCc1nc(CCCCCCC)nc(CCCCCCC)n1")
"0 (no)"
>>> class_label("O=C(c1ccccc1)C1(c2ccccc2)OC1(C(=O)c1ccccc1)c1ccccc1 (configuration not stated)")
"0 (no)"
>>> class_label("N#Cc1[nH]c(=O)n(-c2ccc([N+](=O)[O-])cc2)c1N")
"0 (no)"
>>> class_label("Cc1ccc([N+](=O)[O-])cc1NC(=O)/C(=N/NC(=S)NN)C1SC(=S)NC1=O (configuration not stated)")
"0 (no)"
>>> class_label("O=CC[C@]12CC(=O)OC(C=CC13OCCO3)C2")
"0 (no)"
>>> class_label("CCCCC(O)CCC (configuration not stated)")
"0 (no)"
>>> class_label("COc1ccc2c(O)c(Oc3ccccc3)c(=O)oc2c1")
"0 (no)"
>>> class_label("CSC(C1c2ccccc2N(c2ccc(C)cc2)c2[nH]c(=O)n(C)c(=O)c21)S(=O)(=O)c1ccc(C)cc1 (configuration not stated)")
"0 (no)"
>>> class_label("Cn1nnn(Cc2ccccc2)/c1=N/C(=S)Nc1ccccc1")
"0 (no)"
>>> class_label("COCCN(CCOC)C(=O)Nc1ccc(Cl)cc1")
"0 (no)"
>>> class_label("O=C(ON=C1C=CC(=NOC(=O)c2ccccc2)C=C1)c1ccccc1")
"0 (no)"
>>> class_label("O=C(O)CC(c1ccccc1)C(CC(=O)O)c1ccccc1 (configuration not stated)")
"0 (no)"
>>> class_label("NC(=O)c1ccc(-c2csc(=S)[nH]2)s1")
"0 (no)"
>>> class_label("Cc1cccc(C(=O)NNC(=O)C(=O)NNC(=O)c2cccc(C)c2)c1")
"0 (no)"
>>> class_label("O=[N+]([O-])c1cccc(Br)c1")
"0 (no)"
>>> class_label("COc1cc2cnc(-c3ccccc3)c(O)c2cc1OC")
"0 (no)"
>>> class_label("CC(=O)COC(=O)c1ccccc1")
"0 (no)"
>>> class_label("C#CC1(O)C2CCc3cc(OC)ccc3C2CCC1(C)C(=O)OC (configuration not stated)")
"0 (no)"
>>> class_label("CC1CC[N+](C)(CC(=O)c2ccc(-c3ccc(C(=O)C[N+]4(C)CCC(C)CC4)cc3)cc2)CC1 (configuration not stated)")
"0 (no)"
>>> class_label("CCC(=O)OC(C)COc1ccccc1 (configuration not stated)")
"0 (no)"
>>> class_label("O=C(O)/C=C\\C(=O)Nc1ccc2c(c1)Cc1cc(O)ccc1-2")
"0 (no)"
>>> class_label("CC(C)CC(C)COC(=O)c1c(Cl)c(Cl)c(Cl)c(Cl)c1C(=O)O (configuration not stated)")
"1 (yes)"
>>> class_label("NC(=O)C(O)c1c[nH]c2ccccc12 (configuration not stated)")
"0 (no)"
>>> class_label("CCCCCC[P+](c1ccccc1)(c1ccccc1)c1ccccc1")
"1 (yes)"
>>> class_label("CC1OCC(O)C(C(O)C(=O)CN(Cc2ccccc2)Cc2ccccc2)O1 (configuration not stated)")
"0 (no)"
>>> class_label("CCc1cccc(CC)c1NC(=S)N/C=C(\\C#N)S(=O)(=O)c1ccc(C)cc1")
"0 (no)"
>>> class_label("C=C1CC(COc2ccc3c(C)c(C)c(=O)oc3c2C)(c2ccccc2)OC1=O (configuration not stated)")
"0 (no)"
>>> class_label("Nc1nc2c(ncn2-c2ccc(Br)cc2)c(=O)[nH]1")
"0 (no)"
>>> class_label("COC1CC(OC2CCC3(C)C(CCC45CCC(C6=CC(=O)OC6)C(C)(CCC43)C5=O)C2)OC(C)C1O (configuration not stated)")
"0 (no)"
>>> class_label("CCc1cc(N(C)C)ccc1N=Nc1ccc([N+](=O)[O-])cc1")
"0 (no)"
>>> class_label("C#CCOCC(CCl)OC(=O)Nc1ccccc1 (configuration not stated)")
"0 (no)"
>>> class_label("COc1ccc(OC)c2[nH]c(Sc3c([N+](=O)[O-])ncn3C)nc12")
"0 (no)"
>>> class_label("O=c1oc2c3ccc4ccccc4c3n(CCN3CCOCC3)c2c2ccccc12")
"0 (no)"
>>> class_label("CC(=O)CC(C[N+](=O)[O-])c1ccccc1 (configuration not stated)")
"0 (no)"
>>> class_label("COC(=O)N1C=NC2C3(C)C(C)=C(C)C3(C)C21C (configuration not stated)")
"0 (no)"

Each recorded value in this set is attributed to PubChem BioAssay (NCI).
